- procedure text: protein stability index of a GFP-peptide fusion (yeast GPS) (PSI 1-4); higher = more stable; sorted into four equal gates, so the index is relative within each strain
- conditions: pdr5∆
Listing: protein stability index of selected sequences
experimental endpoint: protein stability index

>>> measured_number("SLAQNDCNSALDQLLVL [RPN5]")
2.35
>>> measured_number("SVFDATSDPVMHKQLAY [RPN1]")
2.17
>>> measured_number("LKNEGIDLDHKRFLILQ [SMC4]")
2.35
>>> measured_number("LLAVAIAASYHYPEIED [RPP0]")
2.11
>>> measured_number("EQEQQQQQIIKIRITLT [RPS20]")
2.86
>>> measured_number("ADVLSILAMTYSENGKH [RPN1]")
1.9
>>> measured_number("AASKVKLEEESKRGNDK [RPC53]")
3.41
>>> measured_number("MKVEVDSFSGAKIYPGR [RPL24B]")
3.36
>>> measured_number("QPWQMDTNNEADLMALE [SNF12]")
3.25
>>> measured_number("KCPLLVEVDITLSPNVT [GRR1]")
1.83
>>> measured_number("LLQSSIINKLIHIQSKE [POP3]")
2.5
>>> measured_number("KEKLTVQDCRYSLASVT [POP1]")
2.62
>>> measured_number("EAVVDQDVQRTCILHGP [FAS1]")
3.24
>>> measured_number("LKESVEGEFNGDTIELA [PRE8]")
3.48
>>> measured_number("FNKEQLNKFKKAIFQFV [ECM29]")
1.27
>>> measured_number("CDKSVCRKCYARLPPRA [RPL40A]")
2.93
>>> measured_number("TSLLDSLISVLEASLNS [YJL039C/NUP192]")
1.77
>>> measured_number("INQYQLLYNLKNDILTN [SWI1]")
1.33
>>> measured_number("APNTLTNILISPLNTTT [YML103C/NUP188]")
2.13
>>> measured_number("APTPAAPGASVPATAAP [SWI1]")
3.05
>>> measured_number("IENMTKEKVSNGGVGVD [FAS2]")
3.16
>>> measured_number("RSISKELIVSEEIPINS [SIR3]")
2.09
>>> measured_number("RTIGIAVDHRRQNRNQE [RPL13A]")
2.7
>>> measured_number("PEELARILQQLKLDKII [RGR1]")
1.49
>>> measured_number("KVEKRVLGLTILRGEQI [SMB1]")
2.15
>>> measured_number("NKKIGKRPPEIMSTEAH [SIR4]")
3.27
>>> measured_number("SPELKAELRPLQFKSIR [RPS7A]")
3.54
>>> measured_number("PQIRQEIEQLDQYIQKQ [YGL172W/NUP49]")
2.76
>>> measured_number("NWRGREHWKVRNFKKAN [BRN1]")
3.36
>>> measured_number("VLTYPEKVTRYNRHKLQ [RPO31]")
1.6
>>> measured_number("AIGCIERSDLLPYLSDT [YJR042W/NUP85]")
2.96
>>> measured_number("RQKNVIHRAARPTRPDK [RPL15A]")
3.69
>>> measured_number("GCYFEEKRYDDKLLDFI [CSN12]")
2.92
>>> measured_number("ETATSERNASEVRDATL [GRR1]")
3.45
>>> measured_number("KVIEQPITSETAMKKVE [RPL25]")
2.94
>>> measured_number("KLNKVDKNELQQMIITR [SIR3]")
3.22
>>> measured_number("ISDVKIQVAAFIYGMSA [PRP8]")
2.17
>>> measured_number("HSFEDAHTPMLQMYSKI [FAS1]")
3.03
>>> measured_number("DQHVINILWAIYNSASK [YCS4]")
2.22
>>> measured_number("MNKIFTIFKSGEIDFIK [YML103C/NUP188]")
2.62
>>> measured_number("RHGSVVEASRRRRSSTN [MED1]")
3.41
>>> measured_number("LFKKFNNDFKLSIDKVL [RET1]")
1.8
>>> measured_number("KNDTHYLLPDDFHFSTD [BRN1]")
3.19
